# Assay system: acetylcholine receptor
# Measurement notes: SPR, AchR immobilized on CM5 chip, peptide at 10 uM
Listed next: entries and their corresponding Binding affinity (RU).
Metric name: Binding affinity (RU)

- Binder: "KPHIK [5mer-728]"
  Metric name: "Binding affinity (RU)"
  U: "RU"
  Observed: 19
- Binder: "RKCMVK [6mer-1-859]"
  Metric name: "Binding affinity (RU)"
  U: "RU"
  Observed: 27
- Binder: "RHCER [5mer-735]"
  Metric name: "Binding affinity (RU)"
  U: "RU"
  Observed: 11
- Binder: "RLVYRK [6mer-2-380]"
  Metric name: "Binding affinity (RU)"
  U: "RU"
  Observed: 141
- Binder: "KKAHMR [6mer-1-826]"
  Metric name: "Binding affinity (RU)"
  U: "RU"
  Observed: 31
- Binder: "KKKSNR [6mer-1-809]"
  Metric name: "Binding affinity (RU)"
  U: "RU"
  Observed: 12
- Binder: "KLIYRK [6mer-2-373]"
  Metric name: "Binding affinity (RU)"
  U: "RU"
  Observed: 139
- Binder: "KKHHR [5mer-736]"
  Metric name: "Binding affinity (RU)"
  U: "RU"
  Observed: 24
- Binder: "KHTMR [5mer-1046]"
  Metric name: "Binding affinity (RU)"
  U: "RU"
  Observed: 19
- Binder: "RNAVR [5mer-1026]"
  Metric name: "Binding affinity (RU)"
  U: "RU"
  Observed: 20
- Binder: "RAWER [5mer-700]"
  Metric name: "Binding affinity (RU)"
  U: "RU"
  Observed: 17
- Binder: "RKMKHK [6mer-1-803]"
  Metric name: "Binding affinity (RU)"
  U: "RU"
  Observed: 31
- Binder: "KRASVK [6mer-1-852]"
  Metric name: "Binding affinity (RU)"
  U: "RU"
  Observed: 19
- Binder: "RPCAK [5mer-714]"
  Metric name: "Binding affinity (RU)"
  U: "RU"
  Observed: 32
- Binder: "RGRQKR [6mer-2-362]"
  Metric name: "Binding affinity (RU)"
  U: "RU"
  Observed: 154
- Binder: "KKEAVR [6mer-1-854]"
  Metric name: "Binding affinity (RU)"
  U: "RU"
  Observed: 16
- Binder: "REWDK [5mer-1033]"
  Metric name: "Binding affinity (RU)"
  U: "RU"
  Observed: 28
- Binder: "KKDAPR [6mer-1-841]"
  Metric name: "Binding affinity (RU)"
  U: "RU"
  Observed: 30
- Binder: "RMEIK [5mer-745]"
  Metric name: "Binding affinity (RU)"
  U: "RU"
  Observed: 14
- Binder: "RGIRKK [6mer-2-355]"
  Metric name: "Binding affinity (RU)"
  U: "RU"
  Observed: 124
- Binder: "KTCDR [5mer-733]"
  Metric name: "Binding affinity (RU)"
  U: "RU"
  Observed: 23
- Binder: "KIMWR [5mer-732]"
  Metric name: "Binding affinity (RU)"
  U: "RU"
  Observed: 22
- Binder: "KADIK [5mer-1029]"
  Metric name: "Binding affinity (RU)"
  U: "RU"
  Observed: 25
- Binder: "KKKTIK [6mer-1-843]"
  Metric name: "Binding affinity (RU)"
  U: "RU"
  Observed: 28
- Binder: "RKEER [5mer-1031]"
  Metric name: "Binding affinity (RU)"
  U: "RU"
  Observed: 13
- Binder: "RRYCRR [6mer-2-377]"
  Metric name: "Binding affinity (RU)"
  U: "RU"
  Observed: 142
- Binder: "RRNPEK [6mer-1-850]"
  Metric name: "Binding affinity (RU)"
  U: "RU"
  Observed: 29
- Binder: "RISDK [5mer-1030]"
  Metric name: "Binding affinity (RU)"
  U: "RU"
  Observed: 18
- Binder: "RKIKAR [6mer-1-818]"
  Metric name: "Binding affinity (RU)"
  U: "RU"
  Observed: 14
- Binder: "KMCAK [5mer-1009]"
  Metric name: "Binding affinity (RU)"
  U: "RU"
  Observed: 29
- Binder: "RRIMKR [6mer-1-817]"
  Metric name: "Binding affinity (RU)"
  U: "RU"
  Observed: 16
